# Test system: SK-LU-1
# PROTOCOL SUMMARY: relative viability (nuclei count vs DMSO), 5 days (fraction); higher = more cells survive
# RECORDED CONDITIONS: first compound 1.265 µM
EXPERIMENTAL ENDPOINT: relative viability
Answer using only a numeral; do not append any unit.

{"columns": ["COMPOUND", "relative viability"],
 "data": [
  ["Clc1ccc(Nc2nnc(Cc3ccncc3)c3ccccc23)cc1 [Vatalanib] + C[C@@H](Oc1cc(-c2cnn(C3CCNCC3)c2)cnc1N)c1c(Cl)ccc(F)c1Cl [Crizotinib] (partner 1 µM)", 1.06],
  ["COc1cc(N2CCC(C(N)=O)CC2)ccc1Nc1nc(N)c(Cl)c(Nc2ccccc2S(=O)(=O)C(C)C)n1 [HG-5-88-01] + COc1cc2c(Oc3ccc(NC(=O)C4(C(=O)Nc5ccc(F)cc5)CC4)cc3F)ccnc2cc1OCCCN1CCOCC1 [Foretinib] (partner 0.25 µM)", 0.738]
]}

Query: Please look at COc1cc(N2CCC(C(N)=O)CC2)ccc1Nc1nc(N)c(Cl)c(Nc2ccccc2S(=O)(=O)C(C)C)n1 [HG-5-88-01] + Nc1ncn([C@H]2C[C@H](O)[C@@H](CO)O2)c(=O)n1 [Decitabine] (partner 2 µM) and tell me its recorded relative viability on SK-LU-1.
Response: 0.598

Query: Write down the reported relative viability (system: SK-LU-1) of Clc1ccc(Nc2nnc(Cc3ccncc3)c3ccccc23)cc1 [Vatalanib] + N=C(N)NC(=N)NCCc1ccccc1 [Phenformin] (partner 250 µM)
Response: 0.494

====

Collected relative viability values appear next to each entry.
# Test system: NCI-H522
# PROTOCOL SUMMARY: relative viability (nuclei count vs DMSO), 5 days (fraction); higher = more cells survive
# RECORDED CONDITIONS: first compound 0.04 µM

Query: # return relative viability for C[C@@H]1CN(CC(=O)Nc2ccc3c(c2)Cc2cccc(-c4cc(=O)cc(N5CCOCC5)o4)c2S3)C[C@H](C)O1 + COc1cccc2cc(-c3nc([C@H]4CC[C@H](C(=O)O)CC4)n4ncnc(N)c34)[nH]c12 [OSI-027] (partner 0.5 µM) , test system: NCI-H522
Response: 0.706

Query: Tell me its relative viability on NCI-H522: C[C@@H]1CN(CC(=O)Nc2ccc3c(c2)Cc2cccc(-c4cc(=O)cc(N5CCOCC5)o4)c2S3)C[C@H](C)O1 + Nc1nc2[nH]cc(CCc3ccc(C(=O)N[C@@H](CCC(=O)O)C(=O)O)cc3)c2c(=O)[nH]1 [Pemetrexed] (partner 0.2 µM)
Response: 0.691

Query: State measured relative viability of the compound Clc1ccc(Nc2nnc(Cc3ccncc3)c3ccccc23)cc1 [Vatalanib] + N=C(N)NC(=N)NCCc1ccccc1 [Phenformin] (partner 250 µM) with NCI-H522.
Response: 0.699

Query: Please report relative viability with NCI-H522 for item Clc1ccc(Nc2nnc(Cc3ccncc3)c3ccccc23)cc1 [Vatalanib] + Cc1nc(Nc2ncc(C(=O)Nc3c(C)cccc3Cl)s2)cc(N2CCN(CCO)CC2)n1 [Dasatinib] (partner 0.075 µM) .
Response: 0.843

Query: Tell me relative viability of C[C@@H]1CN(CC(=O)Nc2ccc3c(c2)Cc2cccc(-c4cc(=O)cc(N5CCOCC5)o4)c2S3)C[C@H](C)O1 + NC(=O)Nc1cc(-c2cccc(F)c2)sc1C(=O)N[C@H]1CCCNC1 [AZD7762] (partner 0.2 µM) when tested on NCI-H522.
Response: 0.526

Query: Please look at COc1cc(N2CCC(C(N)=O)CC2)ccc1Nc1nc(N)c(Cl)c(Nc2ccccc2S(=O)(=O)C(C)C)n1 [HG-5-88-01] + N=C(N)NC(=N)NCCc1ccccc1 [Phenformin] (partner 250 µM) and tell me its recorded relative viability on NCI-H522.
Response: 0.711

Query: Given COc1cc(N2CCC(C(N)=O)CC2)ccc1Nc1nc(N)c(Cl)c(Nc2ccccc2S(=O)(=O)C(C)C)n1 [HG-5-88-01] + Nc1nc2[nH]cc(CCc3ccc(C(=O)N[C@@H](CCC(=O)O)C(=O)O)cc3)c2c(=O)[nH]1 [Pemetrexed] (partner 0.2 µM) , report its relative viability on NCI-H522.
Response: 0.967

Query: Return reported relative viability for target or system NCI-H522, item C[C@@H]1CN(CC(=O)Nc2ccc3c(c2)Cc2cccc(-c4cc(=O)cc(N5CCOCC5)o4)c2S3)C[C@H](C)O1 + Cc1nc(Nc2ncc(C(=O)Nc3c(C)cccc3Cl)s2)cc(N2CCN(CCO)CC2)n1 [Dasatinib] (partner 0.075 µM) .
Response: 0.775

Query: Fill in relative viability for Clc1ccc(Nc2nnc(Cc3ccncc3)c3ccccc23)cc1 [Vatalanib] + Nc1nc2[nH]cc(CCc3ccc(C(=O)N[C@@H](CCC(=O)O)C(=O)O)cc3)c2c(=O)[nH]1 [Pemetrexed] (partner 0.2 µM) tested with NCI-H522.
Response: 0.923
